targetDesc: UniProtKB O00574
Sequence (O00574 whole entry, looked up): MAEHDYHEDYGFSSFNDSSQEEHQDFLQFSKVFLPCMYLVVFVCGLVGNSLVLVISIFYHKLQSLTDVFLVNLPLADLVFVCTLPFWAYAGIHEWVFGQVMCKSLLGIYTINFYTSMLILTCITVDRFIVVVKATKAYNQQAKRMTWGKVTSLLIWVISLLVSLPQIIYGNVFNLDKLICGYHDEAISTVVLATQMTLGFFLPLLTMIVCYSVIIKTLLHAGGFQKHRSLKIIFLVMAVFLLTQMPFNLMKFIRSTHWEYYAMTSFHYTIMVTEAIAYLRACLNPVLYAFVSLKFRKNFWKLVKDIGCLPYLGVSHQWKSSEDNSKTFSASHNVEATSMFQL
assaySummary: potency against CXCR6 with APJ panel – cell-based, beta-arrestin, DiscoveRx, uHTS hits, dose response (AID 624129)
setupConditions: CXCR6 beta-arrestin (DiscoveRx) antagonist cell assay, CXCR6, dose range 1
Calls of active or inactive are those of the source. The rule behind the calls is not given here.
Outcome codes: active, inactive

>  <compound>
Fc1ccc(Sc2nc(-c3ccccc3)nnc2C(F)(F)F)cc1

>  <category>
inactive

$$$$
>  <compound>
N#CC(C#N)=C1C=CC=CN1/C(=C\c1ccco1)C(=O)c1ccccc1

>  <category>
active

$$$$
>  <compound>
O=C1C(Cc2ccccc2)Nc2ncnc(N3CCN(c4ccccc4)CC3)c2N1Cc1ccc(Cl)cc1 (stereo not given)

>  <category>
active

$$$$
>  <compound>
CN(O)C(=S)c1ccccc1

>  <category>
active

$$$$
>  <compound>
CCS(=O)(=O)c1ncc(Cl)c(C(=O)Nc2ccc(S(=O)(=O)N3CCCC(C)C3)cc2)n1 (stereo not given)

>  <category>
active

$$$$

====

The following compounds are listed with their measured pIC50 values.
targetDesc: Apelin receptor (Homo sapiens)
assaySummary: potency against CXCR6 with APJ panel – cell-based, beta-arrestin, DiscoveRx, uHTS hits, dose response (AID 624129)
setupConditions: CXCR6 beta-arrestin (DiscoveRx) antagonist cell assay, APJ, run 3, dose range 1
pIC50: −log10 of the molar value.
propertyName: pIC50

>  <compound>
CC(C)N=C1CCCC1C(=S)SSC(=S)C1CCCC1=NC(C)C (stereo unspecified)

>  <cmp>
=

>  <endpointValue>
4.45

$$$$
>  <compound>
Cc1cc(C)c2ccc(N)nc2c1O

>  <cmp>
<

>  <endpointValue>
4.10

$$$$
>  <compound>
Cc1ccc(S(=O)(=O)c2ccc([N+](=O)[O-])o2)cc1

>  <cmp>
=

>  <endpointValue>
4.93

$$$$
>  <compound>
On1ccccc1=S

>  <cmp>
=

>  <endpointValue>
4.65

$$$$
>  <compound>
CCS(=O)(=O)c1ncc(Cl)c(C(=O)Nc2ccc(S(=O)(=O)N(C)c3ccccc3)cc2)n1

>  <cmp>
=

>  <endpointValue>
5.24

$$$$
>  <compound>
COc1ccc(CN2C(=O)C(Cc3ccccc3)Nc3ncnc(N4CCN(c5ccccc5)CC4)c32)cc1 (stereo unspecified)

>  <cmp>
=

>  <endpointValue>
4.95

$$$$

====

targetDesc: UniProt:P51684
assaySummary: potency against CXCR6 with APJ panel – cell-based, beta-arrestin, DiscoveRx, uHTS hits, dose response (AID 624129)
setupConditions: CXCR6 beta-arrestin (DiscoveRx) antagonist cell assay, CCR6, run 2, dose range 1
pIC50: −log10 of the molar value.

>  <compound>
COc1cccc(-n2nc(C#N)c(Cl)cc2=O)c1

>  <cmp>
=

>  <pIC50>
4.89

$$$$
>  <compound>
COc1ccc(-n2c(O)c(/C=N/Nc3nc(C)cc(C)n3)c3ccccc3c2=O)cc1OC

>  <cmp>
=

>  <pIC50>
4.57

$$$$
>  <compound>
CC(=O)/C(=N\Nc1ccc(Cl)cc1Cl)Sc1cccc2cccnc12

>  <cmp>
=

>  <pIC50>
5.35

$$$$
>  <compound>
Oc1c(Br)cc(Br)cc1C=NCc1ccccc1

>  <cmp>
=

>  <pIC50>
4.69

$$$$
>  <compound>
O=C1C(Cc2ccccc2)Nc2ncnc(N3CCN(c4ccccc4)CC3)c2N1Cc1ccc(Cl)cc1 (configuration not stated)

>  <cmp>
=

>  <pIC50>
5.69

$$$$
>  <compound>
CC1(C)CC(=O)C(C=Nc2ccc(C(=O)c3ccccc3)cc2N=CC2=C(O)CC(C)(C)CC2=O)=C(O)C1

>  <cmp>
=

>  <pIC50>
5.20

$$$$
>  <compound>
O=C1C=CC2(O[C@H](c3ccccc3)[C@@H](c3ccccc3)O2)[C@H](Sc2ccccc2O)C1

>  <cmp>
=

>  <pIC50>
5.41

$$$$
>  <compound>
O=c1oc2ccccc2c(Cl)c1CN1CCCCC1

>  <cmp>
=

>  <pIC50>
5.18

$$$$
>  <compound>
C/C(=N\NC(=O)C1COc2ccccc2O1)c1ccccn1 (configuration not stated)

>  <cmp>
=

>  <pIC50>
5.35

$$$$
>  <compound>
N=C1S/C(=C\c2ccco2)C(=O)N1c1nccs1

>  <cmp>
=

>  <pIC50>
5.05

$$$$
>  <compound>
CS(=O)(=O)c1sc(C#N)c2c1C(=O)CC(c1ccccc1)C2 (configuration not stated)

>  <cmp>
=

>  <pIC50>
4.31

$$$$
>  <compound>
COc1ccc(C(=O)/C=C/C(=O)N(CC(=O)NC2CCCCC2)Cc2ccccc2)c(O)c1

>  <cmp>
<

>  <pIC50>
4.10

$$$$
>  <compound>
Cc1c(CCCl)c(Cl)n2c(nc3ccccc32)c1C#N

>  <cmp>
=

>  <pIC50>
4.29

$$$$
>  <compound>
CCOC(=O)CSc1cccc2cccnc12

>  <cmp>
=

>  <pIC50>
5.23

$$$$
>  <compound>
CC(=O)OC1C2(CC3N4C(=O)C5(CO)SSC4(CC31O)C(=O)N5C)OC(C)C(C)(C)C2=O (configuration not stated)

>  <cmp>
=

>  <pIC50>
5.87

$$$$
>  <compound>
O=[N+]([O-])c1ccc(Sc2cccc3cccnc23)c([N+](=O)[O-])c1

>  <cmp>
=

>  <pIC50>
5.29

$$$$
>  <compound>
Fc1ccc(NC(=S)Nc2nccs2)cc1

>  <cmp>
=

>  <pIC50>
4.84

$$$$
>  <compound>
CCn1c(=O)c([N+](=O)[O-])c(Cl)c2ccccc21

>  <cmp>
=

>  <pIC50>
5.41

$$$$
>  <compound>
COc1ccc(NC(=O)/C(Cl)=C(/Cl)S(=O)Cc2ccccc2)cn1 (configuration not stated)

>  <cmp>
=

>  <pIC50>
5.33

$$$$
>  <compound>
O=C1C=CC(=O)N1c1ccc(-c2nc3ccccc3o2)cc1

>  <cmp>
=

>  <pIC50>
5.47

$$$$
>  <compound>
O=C1c2sc3nc4ccccc4n3c2C(=O)N1c1ccccc1Cl

>  <cmp>
=

>  <pIC50>
4.89

$$$$
>  <compound>
O=[N+]([O-])c1cc(Cc2ccccc2)cc(C=Nc2ccc(N3CCOCC3)cc2)c1O

>  <cmp>
=

>  <pIC50>
4.43

$$$$

====

targetDesc: C-X-C chemokine receptor type 6 (Homo sapiens)
assaySummary: potency against CXCR6 with APJ panel – cell-based, beta-arrestin, DiscoveRx, uHTS hits, dose response (AID 624129)
setupConditions: CXCR6 beta-arrestin (DiscoveRx) antagonist cell assay, CXCR6, dose range 1
The source made the active and inactive calls. The rule behind the calls is not given here.
Outcome codes: YES for active, NO for inactive

>  <compound>
C=CS(=O)(=O)c1ccc(Oc2ccc(S(=O)(=O)C=C)cc2)cc1

>  <category>
YES

$$$$
>  <compound>
Cc1ccc2c(C)ccc(O)c2n1

>  <category>
YES

$$$$
>  <compound>
FC(F)(F)c1cnc(NNC(=S)Nc2ccc(Cl)cc2)c(Cl)c1

>  <category>
NO

$$$$
>  <compound>
O=S(=O)(/C=C/C=C/S(=O)(=O)c1ccccc1)c1ccccc1

>  <category>
YES

$$$$
>  <compound>
Oc1c(Br)cc(Br)cc1C=NCc1ccccc1

>  <category>
NO

$$$$
>  <compound>
CCn1c(=O)c([N+](=O)[O-])c(Cl)c2ccccc21

>  <category>
YES

$$$$
>  <compound>
C=C1C(=O)O[C@@H]2C[C@@H](C)[C@@H]3C=CC(=O)[C@@]3(C)[C@@H](OC(=O)CC(=O)O[C@H]3[C@@H]4C(=C)C(=O)O[C@@H]4C[C@@H](C)[C@@H]4C=CC(=O)[C@]43C)[C@H]12

>  <category>
YES

$$$$
>  <compound>
COc1ccc(N2C(=O)CC(Sc3nnnn3-c3ccc(F)cc3)C2=O)cc1 (stereo not given)

>  <category>
NO

$$$$
>  <compound>
CCOc1ccc2nc(NC(=O)c3ccccn3)sc2c1

>  <category>
NO

$$$$
>  <compound>
CC(Oc1cccc(Cl)c1)C(=O)Nc1nc(-c2ccccn2)cs1 (stereo not given)

>  <category>
YES

$$$$

====

The following molecules are listed with their measured pIC50 values.
targetDesc: C-C chemokine receptor type 6 (Homo sapiens) (UniProt P51684)
assaySummary: potency against CXCR6 with APJ panel – cell-based, beta-arrestin, DiscoveRx, uHTS hits, dose response (AID 624129)
setupConditions: CXCR6 beta-arrestin (DiscoveRx) antagonist cell assay, CCR6, dose range 1
pIC50: −log10 of the molar value.

>  <molecule>
CC(C)(C)c1ccc(CN2N=Nc3ccccc3S2(=O)=O)cc1

>  <pIC50>
4.95

$$$$
>  <molecule>
Cn1c(O)c(C2=NNC(c3ccc(Cl)cc3)C2)c(=O)n(C)c1=O (configuration not stated)

>  <pIC50>
4.95

$$$$
>  <molecule>
O=C(CSc1nc(-c2ccco2)cc(C(F)(F)F)n1)NCCCn1ccnc1

>  <pIC50>
4.75

$$$$
>  <molecule>
On1ccccc1=S

>  <pIC50>
4.94

$$$$
>  <molecule>
CCCC(=O)OCCNc1cc(Sc2nccn2C)c2nonc2c1[N+](=O)[O-]

>  <pIC50>
5.31

$$$$
>  <molecule>
Cc1cnc(C(=O)Nc2cccc3cccnc23)cn1

>  <pIC50>
4.54

$$$$
>  <molecule>
O=C(Nc1ccccc1Cl)/C(Cl)=C(\Cl)S(=O)c1ccccc1 (configuration not stated)

>  <pIC50>
5.07

$$$$
>  <molecule>
C/C(=N\NC(=O)C1COc2ccccc2O1)c1ccccn1 (configuration not stated)

>  <pIC50>
5.49

$$$$
>  <molecule>
CCC1CCCCN1S(=O)(=O)c1ccc(NC(=O)c2nc(S(C)(=O)=O)ncc2Cl)cc1 (configuration not stated)

>  <pIC50>
5.28

$$$$
>  <molecule>
CCC(=O)OCCNc1cc(Sc2nccn2C)c2nonc2c1[N+](=O)[O-]

>  <pIC50>
5.46

$$$$
>  <molecule>
O=c1cc(CSc2ccc(Cl)cc2)nc(-c2ccccn2)[nH]1

>  <pIC50>
5.54

$$$$
>  <molecule>
Fc1ccc(Sc2nc(-c3ccccc3)nnc2C(F)(F)F)cc1

>  <pIC50>
5.13

$$$$
>  <molecule>
O=C(C#Cc1ccccc1)c1ccc([N+](=O)[O-])cc1

>  <pIC50>
5.84

$$$$
>  <molecule>
COc1ccc(C(=O)N/N=C(\C)c2ccccn2)cc1OC

>  <pIC50>
5.69

$$$$
>  <molecule>
O=S(=O)(/C=C/C=C/S(=O)(=O)c1ccccc1)c1ccccc1

>  <pIC50>
5.13

$$$$
>  <molecule>
CCc1cc2c(=O)[nH]c(-c3ccccn3)nc2s1

>  <pIC50>
5.76

$$$$
>  <molecule>
Cc1ccc(/C=N/NC(=S)N2CCOCC2)cc1

>  <pIC50>
5.45

$$$$
>  <molecule>
CNc1ccc2oc(C[C@H]3O[C@@]4(CC[C@H]3C)O[C@H]([C@H](C)C(=O)c3ccc[nH]3)[C@H](C)C[C@H]4C)nc2c1C(=O)O

>  <pIC50>
5.21

$$$$
>  <molecule>
O=[N+]([O-])c1cc2oc3c(c2c(C=NCc2ccccc2)c1O)CCCC3

>  <pIC50>
4.56

$$$$
>  <molecule>
CN(C)c1nc(=NCc2cccs2)ss1

>  <pIC50>
5.44

$$$$
>  <molecule>
O=C(Nc1nc2c(F)cc(F)cc2s1)c1ccccn1

>  <pIC50>
6.18

$$$$
>  <molecule>
C=C1C(=O)O[C@@H]2C[C@@H](C)[C@@H]3C=CC(=O)[C@@]3(C)[C@@H](OC(=O)CC(=O)O[C@H]3[C@@H]4C(=C)C(=O)O[C@@H]4C[C@@H](C)[C@@H]4C=CC(=O)[C@]43C)[C@H]12

>  <pIC50>
5.51

$$$$
